# experimental_system: T1, AP3-AA
# T1 chain: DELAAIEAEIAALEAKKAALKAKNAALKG
# measurement_protocol: two-hybrid library CCmax;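 further: natural log of median RNA to DNA barcode read ratio; higher means stronger binding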
endpoint: interaction score
When you answer, write just the number.

Consider the following illustrative entries.
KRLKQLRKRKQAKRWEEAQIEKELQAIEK [4H_APH2] ... -1.71
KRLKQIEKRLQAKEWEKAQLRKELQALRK [4H_APH4] ... -1.44
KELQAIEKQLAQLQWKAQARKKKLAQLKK [4H_APH] ... -1.35

Next:
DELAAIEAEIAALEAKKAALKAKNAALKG [AP3-AA] yielded interaction score of 0.89
